- Experimental System: 14-3-3γ (Homo sapiens, UniProt P61981)
- Construct: made in house; host or cells: E. coli NiCo21 (DE3)
- Sequence (P61981 whole entry): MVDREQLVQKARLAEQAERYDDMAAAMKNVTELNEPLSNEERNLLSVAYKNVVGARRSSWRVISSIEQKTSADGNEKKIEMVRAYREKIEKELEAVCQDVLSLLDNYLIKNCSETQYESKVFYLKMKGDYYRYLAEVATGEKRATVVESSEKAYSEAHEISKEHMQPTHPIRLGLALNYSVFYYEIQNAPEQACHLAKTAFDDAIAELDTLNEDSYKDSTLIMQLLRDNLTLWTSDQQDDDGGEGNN
- Run Description: Fluorescence anisotropy (FA) binary binding study: 14-3-3 titrated to fluorescein-labelled peptide
- Particulars: Table S2; from FA KD; replicate 1
- Protocol: 14-3-3γ protein expression (FP/ITC experiments) A pPROEX HTb expression vector encoding the human 14-3-3 protein gamma (14-3-3γ) with an N-terminal his6-tag was transformed by heat shock into NiCo21 (DE3) competent cells. Single colonies were cultured in 50 mL LB medium (100 µg/mL ampicillin). After overnight incubation at 37 °C, cultures were transferred to 2 L TB media (100 µg/mL ampicillin, 1 mM MgCl2) and incubated at 37 °C until an OD600 nm of 0.8-1.2 was reached. […]
Where a SMILES comes first, the peptide text is derived from it. [ ]: non-standard residue; d: D form. The star is where a group is joined. ξ: configuration not given here. FITC = O=C1OC2(c3ccc(O)cc3Oc3cc(O)ccc32)c2ccc(NC(=S)*)cc21; Phe(4-NO2) = N[C@@H](Cc1ccc([N+](=O)[O-])cc1)C(=O)O; ξAla(4-thiazolyl) = NC(Cc1cscn1)C(=O)O; pS = N[C@@H](COP(=O)(O)O)C(=O)O; β3hS = N[C@@H](CO)CC(=O)O; Nva = CCC[C@H](N)C(=O)O; ξβ3hS = NC(CO)CC(=O)O; βAla = NCCC(=O)O
Observed Property: ΔG

These solved cases illustrate the format of a correct answer.
C[C@H](NC(=O)[C@H](CCCCN)NC(=O)[C@H](Cc1ccc([N+](=O)[O-])cc1)NC(=O)CCNC(=O)C[C@H](CO)NC(=O)[C@H](Cc1ccc([N+](=O)[O-])cc1)NC(=O)[C@@H](N)COP(=O)(O)O)C(=O)N[C@@H](CCCCNC(=S)Nc1ccc2c(c1)C(=O)OC21c2ccc(O)cc2Oc2cc(O)ccc21)C(N)=O [2d] (H-[pS][Phe(4-NO2)][β3hS][βAla][Phe(4-NO2)]KAK(FITC)-NH2) : -7,74 kcal/mol
C[C@H](NC(=O)[C@H](CCCCN)NC(=O)[C@H](Cc1ccc([N+](=O)[O-])cc1)NC(=O)CCNC(=O)C[C@H](CO)NC(=O)[C@H](Cc1ccc([N+](=O)[O-])cc1)NC(=O)[C@H](COP(=O)(O)O)NC(=O)C(N)Cc1cscn1)C(=O)N[C@@H](CCCCNC(=S)Nc1ccc2c(c1)C(=O)OC21c2ccc(O)cc2Oc2cc(O)ccc21)C(N)=O (stereo partly drawn) [2c] (H-[ξAla(4-thiazolyl)][pS][Phe(4-NO2)][β3hS][βAla][Phe(4-NO2)]KAK(FITC)-NH2) : -9,93 kcal/mol
CCC[C@H](N)C(=O)N[C@@H](Cc1ccc([N+](=O)[O-])cc1)C(=O)NC(Cc1cscn1)C(=O)N[C@@H](COP(=O)(O)O)C(=O)N[C@@H](Cc1ccc([N+](=O)[O-])cc1)C(=O)N[C@@H](CO)CC(=O)NCCC(=O)N[C@@H](Cc1ccc([N+](=O)[O-])cc1)C(=O)N[C@@H](CCCCN)C(=O)N[C@@H](C)C(=O)N[C@@H](CCCCNC(=S)Nc1ccc2c(c1)C(=O)OC21c2ccc(O)cc2Oc2cc(O)ccc21)C(N)=O (stereo partly drawn) [2a] (H-[Nva][Phe(4-NO2)][ξAla(4-thiazolyl)][pS][Phe(4-NO2)][β3hS][βAla][Phe(4-NO2)]KAK(FITC)-NH2) : -10,29 kcal/mol

Now consider a different compound.
q: Give the value of ΔG reported for the following: CCC[C@H](NC(=O)[C@H](N)CCCCN)C(=O)N[C@@H](Cc1ccc([N+](=O)[O-])cc1)C(=O)NC(Cc1cscn1)C(=O)N[C@@H](COP(=O)(O)O)C(=O)N[C@@H](Cc1ccc([N+](=O)[O-])cc1)C(=O)NC(CO)CC(=O)NCCC(=O)N[C@@H](Cc1ccc([N+](=O)[O-])cc1)C(=O)N[C@@H](CCCCN)C(N)=O (stereo partly drawn) [compound 1] (H-[dK][Nva][Phe(4-NO2)][ξAla(4-thiazolyl)][pS][Phe(4-NO2)][ξβ3hS][βAla][Phe(4-NO2)]K-NH2)
a: -10,61 kcal/mol
